Test system: Saccharomyces cerevisiae ABC16-Green Monster
assay_context: 18 h; 30 °C; YPD
The label condition met is reserved for IC50 growth inhibition strictly under 30 µM; condition not met covers values equal to or above it.

IN: Could you please tell me whether IC50 growth inhibition recorded for `CSc1ccccc1C(=O)Nc1nc(-c2ccccn2)cs1` is less than 30 µM?
OUT: condition met

IN: Could you please tell me whether IC50 growth inhibition recorded for `Cc1cccc2sc(C(=O)NCc3cccc(NS(N)(=O)=O)c3)c(Cl)c12` is less than 30 µM?
OUT: condition not met

IN: Could you please tell me whether IC50 growth inhibition recorded for `N=C(N)c1ccc(OCCCCCOc2ccc(C(=N)N)cc2)cc1` is less than 30 µM?
OUT: condition not met

IN: Could you please tell me whether IC50 growth inhibition recorded for OC1=C2C(=Nc3ccccc3SC2c2cccs2)c2ccccc21 (centres undefined) is less than 30 µM?
OUT: condition not met

IN: Could you please tell me whether IC50 growth inhibition recorded for `CC(C)c1cc(NCc2ccccn2)n2ncc(-c3ccccc3)c2n1` is less than 30 µM?
OUT: condition met

IN: Could you please tell me whether IC50 growth inhibition recorded for `OCCNc1nc(Oc2ccc(-c3ccccc3)cc2)nc2ccccc12` is less than 30 µM?
OUT: condition met

IN: Could you please tell me whether IC50 growth inhibition recorded for `Cc1ccc(NC(=O)c2ccc(CN3CCN(C)CC3)cc2)cc1Nc1nccc(-c2cccnc2)n1` is less than 30 µM?
OUT: condition not met

IN: Could you please tell me whether IC50 growth inhibition recorded for `Cc1nc(C(=N)NOC(=O)c2c(-c3c(Cl)cccc3Cl)noc2C)cs1` is less than 30 µM?
OUT: condition met

IN: Could you please tell me whether IC50 growth inhibition recorded for CCC1C=CC=CCC(C)C(O)C(C)(O)C(=O)C(C)C(O)C(C)C(=O)C(C)C(O)C(C)C=CC(=O)OC2C(C)C(CC1)OC1(CCC(C)C(CC(C)O)O1)C2C (centres undefined) is less than 30 µM?
OUT: condition not met

IN: Could you please tell me whether IC50 growth inhibition recorded for `Cc1ccc(-c2nc(CN(Cc3ccccn3)C(C)C)cs2)o1` is less than 30 µM?
OUT: condition met

IN: Could you please tell me whether IC50 growth inhibition recorded for `CN1CCN(CCCN2c3ccccc3Sc3ccc(Cl)cc32)CC1` is less than 30 µM?
OUT: condition met

IN: Could you please tell me whether IC50 growth inhibition recorded for `O=C(Nc1ccccc1)c1ccc(-c2cc3ccncc3cc2OC2CCNCC2)s1` is less than 30 µM?
OUT: condition not met

IN: Could you please tell me whether IC50 growth inhibition recorded for `c1ccc(-c2cn3nc(NCc4ccccc4CN4CCOCC4)sc3n2)cc1` is less than 30 µM?
OUT: condition not met

IN: Could you please tell me whether IC50 growth inhibition recorded for `Cc1ccc(-n2nc(C(C)(C)C)cc2NC(=O)NCc2cc(F)ccc2Oc2ccc3c(cnn3CCO)c2)cc1` is less than 30 µM?
OUT: condition not met

IN: Could you please tell me whether IC50 growth inhibition recorded for `c1ccc(Oc2ccc(-c3cc(C4CCOCC4)[nH]n3)cc2)cc1` is less than 30 µM?
OUT: condition not met

IN: Could you please tell me whether IC50 growth inhibition recorded for `c1ccc(-c2cn3nc(N4CCN(Cc5cn6ccccc6n5)CC4)sc3n2)cc1` is less than 30 µM?
OUT: condition not met

IN: Could you please tell me whether IC50 growth inhibition recorded for COc1cc2c(c(OC)c1OC)-c1ccc(OC)c(=O)cc1C(NC(C)=O)CC2 (centres undefined) is less than 30 µM?
OUT: condition not met

IN: Could you please tell me whether IC50 growth inhibition recorded for CCC(C(C)O)n1ncn(-c2ccc(N3CCN(c4ccc(OCC5COC(Cn6cncn6)(c6ccc(F)cc6F)C5)cc4)CC3)cc2)c1=O (centres undefined) is less than 30 µM?
OUT: condition met

IN: Could you please tell me whether IC50 growth inhibition recorded for `Cc1cc(C(=O)Cn2cnc3ccccc3c2=O)c(C)n1-c1ccccc1` is less than 30 µM?
OUT: condition not met

IN: Could you please tell me whether IC50 growth inhibition recorded for CC(C=CC(=O)NO)=CC(C)C(=O)c1ccc(N(C)C)cc1 (centres undefined) is less than 30 µM?
OUT: condition not met

IN: Could you please tell me whether IC50 growth inhibition recorded for CC1CCC2C(C)C(=O)OC3OC4(C)CCC1C32OO4 (centres undefined) is less than 30 µM?
OUT: condition not met

IN: Could you please tell me whether IC50 growth inhibition recorded for `Clc1ccc(Cl)c(CO[C@H]2CCCC[C@@H]2n2ccnc2)c1` is less than 30 µM?
OUT: condition not met

IN: Could you please tell me whether IC50 growth inhibition recorded for C=C1CCC(O)CC1=CC=C1CCCC2(C)C1CCC2C(C)CCCC(C)(C)O (centres undefined) is less than 30 µM?
OUT: condition not met

IN: Could you please tell me whether IC50 growth inhibition recorded for Cc1nc(-c2ccccn2)nc(N2CCC(Cc3ccccc3)C2)c1Cl (centres undefined) is less than 30 µM?
OUT: condition met

IN: Could you please tell me whether IC50 growth inhibition recorded for `CN(C)C(=N)N=C(N)N` is less than 30 µM?
OUT: condition not met

IN: Could you please tell me whether IC50 growth inhibition recorded for `CCCCc1oc2ccccc2c1C(=O)c1cc(I)c(OCCN(CC)CC)c(I)c1` is less than 30 µM?
OUT: condition met

IN: Could you please tell me whether IC50 growth inhibition recorded for `Cc1cc(Nc2nc(N[C@@H](C)c3ncc(F)cn3)ncc2Cl)n[nH]1` is less than 30 µM?
OUT: condition not met

IN: Could you please tell me whether IC50 growth inhibition recorded for `Cc1cc(=O)[nH]c(-n2nc(C3CC3)cc2NC(=O)C2(c3ccc(Cl)cc3)CCCC2)n1` is less than 30 µM?
OUT: condition met
